# pIC50 values compiled below
Biological target: acyl-CoA: cholesterol acyltransferase (ACAT) (Oryctolagus cuniculus)
Construct: tissue preparation containing rabbit intestinal microsomes; from tissue; host or cells: rabbit intestinal microsomes
Sequence (G1SFD9 1-524): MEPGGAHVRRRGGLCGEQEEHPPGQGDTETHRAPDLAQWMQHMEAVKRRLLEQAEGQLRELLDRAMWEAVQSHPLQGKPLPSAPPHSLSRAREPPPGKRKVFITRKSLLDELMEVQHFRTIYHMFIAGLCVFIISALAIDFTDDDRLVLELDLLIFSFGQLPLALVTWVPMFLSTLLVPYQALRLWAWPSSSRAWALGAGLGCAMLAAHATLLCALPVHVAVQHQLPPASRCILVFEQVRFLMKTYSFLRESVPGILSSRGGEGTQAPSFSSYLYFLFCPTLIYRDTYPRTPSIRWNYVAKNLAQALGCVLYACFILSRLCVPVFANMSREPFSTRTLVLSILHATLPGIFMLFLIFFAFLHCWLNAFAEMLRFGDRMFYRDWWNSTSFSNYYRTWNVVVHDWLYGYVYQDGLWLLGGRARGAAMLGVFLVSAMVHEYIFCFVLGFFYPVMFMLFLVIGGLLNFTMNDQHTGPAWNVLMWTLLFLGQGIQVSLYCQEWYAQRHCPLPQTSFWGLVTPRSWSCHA
Experiment: in vitro ACAT inhibition (IAI): formation of radiolabeled cholesterol oleate from radiolabeled oleic acid in rabbit intestinal microsomes
Format: biochemical
Conditions: rabbit intestinal microsomes; read-out: IAI IC50
pIC50: −log10 of the molar value.

Line notation | pIC50
COC(=O)NS(=O)(=O)Nc1c(C(C)C)cccc1C(C)C | < 4.00
CC(C)c1cccc(C(C)C)c1OC(=O)NS(=O)(=O)N1CCOCC1 | < 4.00
CC(C)c1cccc(C(C)C)c1NS(=O)(=O)NC(=O)Oc1c(-c2ccccc2)cccc1-c1ccccc1 | < 4.60

Query: pIC50; subject: CC(C)c1cccc(C(C)C)c1OC(=O)NS(=O)(=O)N1CCCCC1
< 4.00
